Tested on: MRSA USA400
protocol.notes: MIC against MRSA USA400
Type: cell-based, Staphylococcus aureus
assay.setup: Staphylococcus aureus; TSB, 37 °C, 18–20 hours; read-out: MIC, Staphylococcus aureus isolate USA400
readout.label: MIC

For orientation, consider the following solved cases.
>  <record.smiles>
COc1ccc2ccc(OCCCCCCCCN[C@@H]3CCOC3=O)cc2c1

>  <MIC>
> 128 µg/mL

$$$$
>  <record.smiles>
Fc1ccc(CCNCCCCCCCCOc2ccc3cc(Br)c(OCc4ccccc4)cc3c2)cc1

>  <MIC>
> 128 µg/mL

$$$$

Now look at this one.
Looking up "COc1ccc2ccc(OCCCCCCCCN3C(=O)OC[C@@H]3Cc3ccccc3)cc2c1" , I found its MIC recorded as > 128 µg/mL
